Molecular target: T1, 4H2621-AA
T1 chain: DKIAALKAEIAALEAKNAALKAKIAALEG
Assay: two-hybrid library CCmax;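 further: natural log of median RNA to DNA barcode read ratio; higher means stronger binding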
Settings: mean of both orientations
experimental.endpoint: interaction score

DENAALKAKIAALKAENAALEAKIAALKG [4H1878-AA] has a reported interaction score of 2.05

DENAALEAENAALKAKIAALKAEIAALEG [4H1257-AA] yielded interaction score of -0.883

Form field interaction score, entry DENAALEAKNAALEAKIAALKAEIAALEG [4H1449-AA] : -0.636

I = DENAALEAENAALKAKIAALKAKIAALKG [4H1262-AA]
II = DKIAALKAEIAALEAKIAALKAENAALKG [4H2604-AA]
// query Among I and II , whose measured interaction score is the smaller figure? API: response body contains the label of the selected item.
// result I

Origin of values: paper PMC10397247
